Molecular target: T1, rhNav1.7α + β1-β2-β3 (rhesus Nav1.7α co-expressed with Navβ1, Navβ2 and Navβ3 on cells) (rhesus monkey (α subunit); β subunits …)
T1 construct: also called rhNav1.7-beta1-beta2-beta3; CHO FlpIn rhNav1.7α + β1-β2-β3
Assay: binding FACS, CHO FlpIn cells
readout: Bmax (%)
Answers are plain numbers, in %.

Exam item: Return value of Bmax for input F010302314 (VHH, also called F0103387G04(L11V, A12V, K33R, R39Q, S50Y, S56D, T60A, G73R, W78V, S79Y, T83R, V89L, N93R, N100cI)) VHH: EVQLVESGGGVVQPGGSLRLSCAASGPVFNINRMAWYRQAPGKQRELVAYVTPTGDISYADSVKGRFTISRDRSKRVYLQMNSLRPEDTALYYCRALLQPDSYSITRTYWGQGTLVTVSS , no commentary.
Marked response: 98

Exam item: Return value of Bmax for input F010302312 (VHH, also called F0103387G04(L11V, A12V, K33R, R39Q, S50Y, S56D, T60A, W78V, S79Y, T83R, V89L, N93R, N100cI)) VHH: EVQLVESGGGVVQPGGSLRLSCAASGPVFNINRMAWYRQAPGKQRELVAYVTPTGDISYADSVKGRFTISRDGSKRVYLQMNSLRPEDTALYYCRALLQPDSYSITRTYWGQGTLVTVSS , no commentary.
Marked response: 100

Exam item: Return value of Bmax for input F010302325 (VHH, also called F0103387G04(L11V, A12V, K33R, R39Q, S50Y, S56D, T60A, G73R, W78V, S79Y, T83R, V89L, N93R)) VHH: EVQLVESGGGVVQPGGSLRLSCAASGPVFNINRMAWYRQAPGKQRELVAYVTPTGDISYADSVKGRFTISRDRSKRVYLQMNSLRPEDTALYYCRALLQPDSYSNTRTYWGQGTLVTVSS , no commentary.
Marked response: 99

Exam item: Return value of Bmax for input F010302327 (VHH, also called F0103387G04(L11V, A12V, K33R, R39Q, S50Y, S56D, T60A, G73A, W78V, S79Y, T83R, V89L, N93R, D99R)) VHH: EVQLVESGGGVVQPGGSLRLSCAASGPVFNINRMAWYRQAPGKQRELVAYVTPTGDISYADSVKGRFTISRDASKRVYLQMNSLRPEDTALYYCRALLQPRSYSNTRTYWGQGTLVTVSS , no commentary.
Marked response: 7

Exam item: Return value of Bmax for input F010302326 (VHH, also called F0103387G04(L11V, A12V, K33R, R39Q, S50Y, S56D, T60A, W78V, S79Y, T83R, V89L, N93R, D99R)) VHH: EVQLVESGGGVVQPGGSLRLSCAASGPVFNINRMAWYRQAPGKQRELVAYVTPTGDISYADSVKGRFTISRDGSKRVYLQMNSLRPEDTALYYCRALLQPRSYSNTRTYWGQGTLVTVSS , no commentary.
Marked response: 32

Exam item: Return value of Bmax for input F010301845 (VHH, also called F0103387G04(L11V, A12V, K33R, R39Q, S50Y, S56D, W78V, T83R, V89L, N93R)) VHH: EVQLVESGGGVVQPGGSLRLSCAASGPVFNINRMAWYRQAPGKQRELVAYVTPTGDISYTDSVKGRFTISRDGSKRVSLQMNSLRPEDTALYYCRALLQPDSYSNTRTYWGQGTLVTVSS , no commentary.
Marked response: 100

Exam item: Return value of Bmax for input F010301847 (VHH, also called F0103387G04(L11V, A12V, K33R, R39Q, S50Y, S56D, T60A, G73N, R76N, W78V, S79Y, T83R, V89L, N93R)) VHH: EVQLVESGGGVVQPGGSLRLSCAASGPVFNINRMAWYRQAPGKQRELVAYVTPTGDISYADSVKGRFTISRDNSKNVYLQMNSLRPEDTALYYCRALLQPDSYSNTRTYWGQGTLVTVSS , no commentary.
Marked response: 100

Field: next binder
Exam item: Return value of Bmax for input F010301865 (VHH, also called F0103387G04(L11V, A12V, K33R, R39Q, S50Y, S56D, T60A, W78V, S79Y, T83R, V89L, N93R)) VHH: EVQLVESGGGVVQPGGSLRLSCAASGPVFNINRMAWYRQAPGKQRELVAYVTPTGDISYADSVKGRFTISRDGSKRVYLQMNSLRPEDTALYYCRALLQPDSYSNTRTYWGQGTLVTVSA , no commentary.
Marked response: 100
